Assignment: determine reported IC50 for the given compounds.
biological target: HLA-B1502 (Homo sapiens, UniProt P01889, A329T/A93T/A95T/C349S/D201E/D98Y/E187L/E204Q/E69M/E70A/H137Y/K202T/L119I/Q94N/R155S/R180L/S121R/S35A/S48A/T118I/V306I/V36M/Y140S/Y91S); experiment: Competitive peptide binding assay, CIR-B1502; details: HMy2.CIR-B1502 cells, reference Cy5-[…], class from inhibition at 5 and 15 μM, flow cytometry MFI; read-out: Binding affinity with HLA-B1502
Peptide text beside a SMILES is read from it.

Tell me measured IC50 for CC(C)C[C@H](NC(=O)[C@H](CCC(=O)O)NC(=O)[C@H](CCCCN)NC(=O)[C@H](Cc1ccccc1)NC(=O)[C@H](CO)NC(=O)[C@@H](N)CC(C)C)C(=O)N[C@@H](CC(C)C)C(=O)N[C@H](C(=O)N[C@@H](Cc1ccc(O)cc1)C(=O)O)C(C)C [Epitope Y142] (H-LSFKELLVY-OH; N-terminus and C-terminus assumed) please.
> 15 µM

Tell me measured IC50 for CC[C@H](C)[C@H](NC(=O)[C@H](CC(N)=O)NC(=O)[C@H](CCCCN)NC(=O)[C@H](Cc1ccccc1)NC(=O)[C@@H](NC(=O)[C@@H](N)Cc1ccccc1)C(C)C)C(=O)N[C@@H](CC(=O)O)C(=O)NCC(=O)N[C@@H](Cc1ccc(O)cc1)C(=O)O [Epitope Y172] (H-FVFKNIDGY-OH; N-terminus and C-terminus assumed) please.
5 to 15 µM

Tell me measured IC50 for CC(C)C[C@H](NC(=O)[C@H](CC(C)C)NC(=O)[C@H](C)NC(=O)[C@H](CCC(N)=O)NC(=O)[C@H](CCCNC(=N)N)NC(=O)[C@@H](NC(=O)[C@H](CCCNC(=N)N)NC(=O)[C@H](CCC(=O)O)NC(=O)CN)C(C)C)C(=O)O [Epitope Y202] (H-GERVRQALL-OH; N-terminus and C-terminus assumed) please.
> 15 µM

---

Assignment: determine reported IC50 for the given compounds.
target: HLA-B4601 (Homo sapiens, UniProt P01889, A329T/A93R/C349S/D201E/E100V/E187L/E204Q/E69M/E70A/I90K/K202T/N87E/R155S/R180W/S121R/S35A/S48A/V306I/V36M/Y140S); assay: Competitive peptide binding assay, CIR-B4601; conditions: HMy2.CIR-B4601 cells, reference Cy5-[…], class from inhibition at 5 and 15 μM, flow cytometry MFI; read-out: Binding affinity with HLA-B4601
Peptide text beside a SMILES is read from it.

Tell me measured IC50 for CC(C)C[C@H](NC(=O)[C@H](CC(=O)O)NC(=O)[C@H](C)NC(=O)[C@H](C)NC(=O)[C@@H]1CCCN1C(=O)[C@@H](N)CC(C)C)C(=O)N[C@@H](CC(=O)O)C(=O)N[C@@H](CC(=O)O)C(=O)N[C@@H](Cc1ccccc1)C(=O)O [Epitope Y180] (H-LPAADLDDF-OH; N-terminus and C-terminus assumed) please.
> 15 µM

Tell me measured IC50 for CC[C@H](C)[C@H](NC(=O)[C@@H](NC(=O)[C@H](CCC(=O)O)NC(=O)[C@H](CCC(=O)O)NC(=O)[C@@H](N)Cc1c[nH]cn1)[C@@H](C)O)C(=O)N[C@@H](Cc1ccc(O)cc1)C(=O)N[C@@H](CC(N)=O)C(=O)N[C@@H](CC(C)C)C(=O)N[C@@H](CC(C)C)C(=O)O [Epitope Y199] (H-HEETIYNLL-OH; N-terminus and C-terminus assumed) please.
> 15 µM

Tell me measured IC50 for CSCC[C@H](NC(=O)[C@H](C)NC(=O)[C@@H](N)Cc1ccccc1)C(=O)N[C@@H](CCC(N)=O)C(=O)N[C@@H](CCSC)C(=O)N[C@@H](C)C(=O)N[C@@H](Cc1ccc(O)cc1)C(=O)N[C@@H](CCCNC(=N)N)C(=O)N[C@@H](Cc1ccccc1)C(=O)O [Epitope Y189] please.
< 5 µM

---

Assignment: determine reported inhibition at 5 µM for the given compounds.
target: HLA-C0102 (Homo sapiens, UniProt P10321, A176E/A330V/A35S/A97T/C350S/D114A/D33F/L171W/L180R/L218V/M285V/M309V/M331V/P208H/Q277E/Q291P/R121W/R243W/R30K/S123C/S140Y/S297R/T329A/T363A/V272M/V319A); test: Competitive peptide binding assay, CIR-C0102; settings: read-out: Inhibition % of Cy5-reference peptide binding
Peptide text beside a SMILES is read from it.
A number alone suffices; assume %.

Tell me measured inhibition at 5 µM for CC(C)C[C@H](NC(=O)[C@H](C)NC(=O)[C@@H](NC(=O)[C@@H](N)CC(C)C)[C@@H](C)O)C(=O)N[C@@H](CCCNC(=N)N)C(=O)N[C@@H](CC(C)C)C(=O)N[C@@H](CS)C(=O)N[C@@H](C)C(=O)N[C@@H](Cc1ccc(O)cc1)C(=O)O [Epitope M51] (H-LTALRLCAY-OH; N-terminus and C-terminus assumed) please.
42.9

Tell me measured inhibition at 5 µM for CC[C@H](C)[C@H](NC(=O)[C@H](Cc1ccc(O)cc1)NC(=O)[C@H](CC(C)C)NC(=O)[C@H](Cc1ccccc1)NC(=O)[C@H](CCCNC(=N)N)NC(=O)[C@H](CC(N)=O)NC(=O)[C@H](CCCNC(=N)N)NC(=O)[C@H](CC(N)=O)NC(=O)[C@H](C)NC(=O)[C@@H](N)Cc1ccc(O)cc1)C(=O)O [Epitope M73] (H-YANRNRFLYI-OH; N-terminus and C-terminus assumed) please.
23.5

Tell me measured inhibition at 5 µM for CC(C)[C@H](NC(=O)CNC(=O)[C@H](CCCNC(=N)N)NC(=O)[C@@H](NC(=O)[C@H](Cc1ccccc1)NC(=O)[C@H](CO)NC(=O)[C@@H](N)CC(N)=O)[C@@H](C)O)C(=O)N[C@@H](Cc1ccc(O)cc1)C(=O)N[C@@H](Cc1ccc(O)cc1)C(=O)O [Epitope M129] (H-NSFTRGVYY-OH; N-terminus and C-terminus assumed) please.
11.3

Tell me measured inhibition at 5 µM for CC(C)C[C@H](NC(=O)[C@H](C)NC(=O)[C@@H](NC(=O)[C@H](Cc1ccccc1)NC(=O)[C@H](Cc1c[nH]c2ccccc12)NC(=O)[C@H](CO)NC(=O)[C@H](C)NC(=O)[C@@H](NC(=O)[C@@H](N)CC(N)=O)[C@@H](C)O)[C@@H](C)O)C(=O)O [Epitope M56, NTASWFTAL] (H-NTASWFTAL-OH; N-terminus and C-terminus assumed) please.
17.3

---

Assignment: determine reported inhibition at 15 µM for the given compounds.
target: HLA-B4601 (Homo sapiens, UniProt P01889, A329T/A93R/C349S/D201E/E100V/E187L/E204Q/E69M/E70A/I90K/K202T/N87E/R155S/R180W/S121R/S35A/S48A/V306I/V36M/Y140S); assay: Competitive peptide binding assay, CIR-B4601; details: read-out: Inhibition % of Cy5-reference peptide binding, CIR-B4601, 15μM peptide
Peptide text beside a SMILES is read from it.
A number alone suffices; assume %.

Tell me measured inhibition at 15 µM for CSCC[C@H](NC(=O)[C@H](CCCCN)NC(=O)CN)C(=O)N[C@@H](CCCCN)C(=O)N[C@@H](CC(=O)O)C(=O)N[C@@H](CC(C)C)C(=O)N[C@@H](CO)C(=O)N1CCC[C@H]1C(=O)N[C@@H](CCCNC(=N)N)C(=O)N[C@@H](Cc1c[nH]c2ccccc12)C(=O)O [Epitope Y224] (H-GKMKDLSPRW-OH; N-terminus and C-terminus assumed) please.
52.3

Tell me measured inhibition at 15 µM for CSCC[C@H](NC(=O)[C@H](CCSC)NC(=O)[C@H](CO)NC(=O)[C@H](Cc1ccccc1)NC(=O)[C@H](Cc1c[nH]cn1)NC(=O)[C@H](CCCCN)NC(=O)[C@H](CCCNC(=N)N)NC(=O)[C@H](CC(C)C)NC(=O)[C@@H](N)Cc1ccc(O)cc1)C(=O)O [Epitope Y28] (H-YLRKHFSMM-OH; N-terminus and C-terminus assumed) please.
91.8

Tell me measured inhibition at 15 µM for CC[C@H](C)[C@H](NC(=O)CNC(=O)[C@H](CC(=O)O)NC(=O)[C@H](CCCCN)NC(=O)[C@H](CC(N)=O)NC(=O)[C@H](C)NC(=O)CNC(=O)[C@H](Cc1ccc(O)cc1)NC(=O)[C@@H]1CCCN1C(=O)[C@@H](N)CC(C)C)C(=O)O [Epitope Y273] (H-LPYGANKDGI-OH; N-terminus and C-terminus assumed) please.
31

Tell me measured inhibition at 15 µM for CC(C)C[C@H](NC(=O)[C@H](CC(C)C)NC(=O)[C@H](CC(C)C)NC(=O)[C@H](CC(N)=O)NC(=O)[C@H](CO)NC(=O)[C@H](CS)NC(=O)[C@H](CCC(=O)O)NC(=O)[C@@H](N)[C@@H](C)O)C(=O)N[C@@H](CCC(N)=O)C(=O)N[C@@H](Cc1ccc(O)cc1)C(=O)O [Epitope Y231] (H-TECSNLLLQY-OH; N-terminus and C-terminus assumed) please.
89.3

Tell me measured inhibition at 15 µM for CC[C@H](C)[C@H](NC(=O)[C@H](C)NC(=O)CNC(=O)[C@@H](NC(=O)[C@H](Cc1ccc(O)cc1)NC(=O)[C@@H](NC(=O)[C@@H](N)CC(C)C)[C@@H](C)O)[C@@H](C)O)C(=O)N[C@@H](CCCCN)C(=O)N[C@@H](CC(C)C)C(=O)O [Epitope Y243] (H-LTYTGAIKL-OH; N-terminus and C-terminus assumed) please.
94

Tell me measured inhibition at 15 µM for CC(C)C[C@H](NC(=O)[C@@H](NC(=O)[C@@H](NC(=O)CNC(=O)[C@H](CCC(N)=O)NC(=O)[C@@H]1CCCN1C(=O)[C@H](CC(C)C)NC(=O)[C@H](CCC(N)=O)NC(=O)[C@@H](N)CC(C)C)[C@@H](C)O)[C@@H](C)O)C(=O)O [Epitope Y61] (H-LQLPQGTTL-OH; N-terminus and C-terminus assumed) please.
33.6

Tell me measured inhibition at 15 µM for CSCC[C@H](NC(=O)[C@H](C)NC(=O)[C@@H](N)Cc1ccccc1)C(=O)N[C@@H](CCC(N)=O)C(=O)N[C@@H](CCSC)C(=O)N[C@@H](C)C(=O)N[C@@H](Cc1ccc(O)cc1)C(=O)N[C@@H](CCCNC(=N)N)C(=O)N[C@@H](Cc1ccccc1)C(=O)O [Epitope Y189] please.
92.9

Tell me measured inhibition at 15 µM for CC[C@H](C)[C@H](NC(=O)[C@H](CCC(N)=O)NC(=O)[C@@H](N)CC(C)C)C(=O)N1CCC[C@H]1C(=O)N[C@@H](Cc1ccccc1)C(=O)N[C@@H](C)C(=O)N[C@@H](CCSC)C(=O)N[C@@H](CCC(N)=O)C(=O)N[C@@H](CCSC)C(=O)O [Epitope Y81] (H-LQIPFAMQM-OH; N-terminus and C-terminus assumed) please.
44

Tell me measured inhibition at 15 µM for CC[C@H](C)[C@H](NC(=O)[C@@H](NC(=O)[C@H](CC(C)C)NC(=O)[C@H](CC(N)=O)NC(=O)[C@H](Cc1c[nH]c2ccccc12)NC(=O)[C@H](CCC(N)=O)NC(=O)[C@H](CCC(=O)O)NC(=O)[C@@H](N)CC(C)C)C(C)C)C(=O)NCC(=O)O [Epitope Y215] (H-LEQWNLVIG-OH; N-terminus and C-terminus assumed) please.
87.3

Tell me measured inhibition at 15 µM for C[C@H](NC(=O)[C@H](CO)NC(=O)[C@H](CO)NC(=O)[C@@H](N)Cc1ccc(O)cc1)C(=O)N[C@@H](CC(N)=O)C(=O)N[C@@H](CC(N)=O)C(=O)N[C@@H](CS)C(=O)N[C@H](C(=O)N[C@@H](Cc1ccccc1)C(=O)O)[C@@H](C)O [Epitope Y247] (H-YSSANNCTF-OH; N-terminus and C-terminus assumed) please.
86.4

Tell me measured inhibition at 15 µM for CC[C@H](C)[C@H](NC(=O)[C@H](C)NC(=O)[C@H](C)NC(=O)[C@H](CC(N)=O)NC(=O)[C@H](CC(N)=O)NC(=O)[C@H](C)NC(=O)[C@@H]1CCCN1C(=O)[C@@H](N)CC(N)=O)C(=O)N[C@H](C(=O)O)C(C)C [Epitope Y18] (H-NPANNAAIV-OH; N-terminus and C-terminus assumed) please.
42.5

Tell me measured inhibition at 15 µM for CC[C@H](C)[C@H](NC(=O)[C@@H](NC(=O)[C@H](CCC(=O)O)NC(=O)[C@H](CCC(=O)O)NC(=O)[C@@H](N)Cc1c[nH]cn1)[C@@H](C)O)C(=O)N[C@@H](Cc1ccc(O)cc1)C(=O)N[C@@H](CC(N)=O)C(=O)N[C@@H](CC(C)C)C(=O)N[C@@H](CC(C)C)C(=O)O [Epitope Y199] (H-HEETIYNLL-OH; N-terminus and C-terminus assumed) please.
44.1
